Target: human CD33 S128N (human) (UniProt P20138)
Sequence (P20138 18-259 S128N): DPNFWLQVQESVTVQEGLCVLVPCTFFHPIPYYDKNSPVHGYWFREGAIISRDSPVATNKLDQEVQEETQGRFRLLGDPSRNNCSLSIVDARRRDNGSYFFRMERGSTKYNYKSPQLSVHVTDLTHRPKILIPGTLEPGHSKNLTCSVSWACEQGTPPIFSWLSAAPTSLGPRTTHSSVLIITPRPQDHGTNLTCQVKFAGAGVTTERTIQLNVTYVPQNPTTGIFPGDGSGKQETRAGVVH
Assay: SPR, Fab captured, 37C
reportedEndpoint: koff (s⁻¹)
# unit: s⁻¹ | format: bare number

Check out these entries, answers already filled in.
binder	unitOfMeasure	koff
ADI-10157 Fab (Fab, V domains shown) VH: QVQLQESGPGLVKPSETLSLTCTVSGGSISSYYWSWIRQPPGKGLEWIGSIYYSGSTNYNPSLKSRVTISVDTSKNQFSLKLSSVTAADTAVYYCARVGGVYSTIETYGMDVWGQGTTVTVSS VL: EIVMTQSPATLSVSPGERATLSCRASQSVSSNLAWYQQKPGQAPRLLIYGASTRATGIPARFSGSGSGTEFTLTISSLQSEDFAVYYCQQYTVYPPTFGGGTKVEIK	s⁻¹	0.00924
ADI-11839 Fab (Fab, V domains shown) VH: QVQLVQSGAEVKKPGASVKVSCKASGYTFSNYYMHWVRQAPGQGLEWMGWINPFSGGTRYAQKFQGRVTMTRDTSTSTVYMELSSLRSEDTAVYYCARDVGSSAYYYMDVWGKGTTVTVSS VL: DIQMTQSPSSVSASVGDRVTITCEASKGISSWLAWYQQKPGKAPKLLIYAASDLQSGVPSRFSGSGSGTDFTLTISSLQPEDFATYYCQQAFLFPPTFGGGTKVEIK	s⁻¹	0.0284
ADI-11828 Fab (Fab, V domains shown) VH: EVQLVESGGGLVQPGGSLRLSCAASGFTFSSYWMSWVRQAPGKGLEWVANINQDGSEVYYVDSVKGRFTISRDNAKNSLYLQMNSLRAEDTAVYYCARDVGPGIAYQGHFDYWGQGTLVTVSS VL: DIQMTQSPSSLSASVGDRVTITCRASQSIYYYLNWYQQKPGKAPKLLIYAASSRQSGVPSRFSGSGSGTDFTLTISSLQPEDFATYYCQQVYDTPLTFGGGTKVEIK	s⁻¹	0.00742

Incoming: Please supply the value of reported koff for the item ADI-11812 Fab (Fab, V domains shown) VH: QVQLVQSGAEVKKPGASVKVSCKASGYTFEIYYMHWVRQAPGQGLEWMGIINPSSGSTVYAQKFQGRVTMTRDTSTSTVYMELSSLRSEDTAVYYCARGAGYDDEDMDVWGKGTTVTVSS VL: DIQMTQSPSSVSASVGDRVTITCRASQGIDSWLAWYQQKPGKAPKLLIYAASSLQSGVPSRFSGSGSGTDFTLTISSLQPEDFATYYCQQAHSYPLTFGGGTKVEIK
Outgoing: 0.00112

Incoming: Give koff for ADI-11826 Fab (Fab, V domains shown) VH: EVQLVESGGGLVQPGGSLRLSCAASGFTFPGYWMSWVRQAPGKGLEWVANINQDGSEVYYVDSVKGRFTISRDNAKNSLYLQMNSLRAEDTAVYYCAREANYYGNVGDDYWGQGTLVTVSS VL: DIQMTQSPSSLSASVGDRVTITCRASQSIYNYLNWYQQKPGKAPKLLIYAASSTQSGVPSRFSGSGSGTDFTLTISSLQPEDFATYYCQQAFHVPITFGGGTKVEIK
Outgoing: 0.00574

Incoming: Give the reported value of koff for this record: ADI-11825 Fab (Fab, V domains shown) VH: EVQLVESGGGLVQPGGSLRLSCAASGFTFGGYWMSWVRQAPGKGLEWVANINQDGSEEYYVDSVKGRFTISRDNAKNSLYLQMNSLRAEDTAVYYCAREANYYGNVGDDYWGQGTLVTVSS VL: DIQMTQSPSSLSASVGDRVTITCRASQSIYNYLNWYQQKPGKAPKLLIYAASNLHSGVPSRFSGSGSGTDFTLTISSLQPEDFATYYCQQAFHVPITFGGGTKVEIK
Outgoing: 0.00649

Incoming: Assign koff to the following record: ADI-10161 Fab (Fab, V domains shown) VH: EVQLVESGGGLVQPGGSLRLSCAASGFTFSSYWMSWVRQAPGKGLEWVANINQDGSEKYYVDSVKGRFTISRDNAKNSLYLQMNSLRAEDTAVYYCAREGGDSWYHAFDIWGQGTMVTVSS VL: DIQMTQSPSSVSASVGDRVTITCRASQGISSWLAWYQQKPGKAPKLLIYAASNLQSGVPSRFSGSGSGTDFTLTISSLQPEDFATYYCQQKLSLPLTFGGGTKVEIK
Outgoing: 0.0385
